From: the supplement of paper PMC7877785

# TEST_DESCRIPTION: self-splicing fitness, log relative to wild type (ln ratio); higher = more splicing; Tetrahymena group I intron in knt gene, E. coli kanamycin selection, DiMSum; sequences stand for … in CUCUCU…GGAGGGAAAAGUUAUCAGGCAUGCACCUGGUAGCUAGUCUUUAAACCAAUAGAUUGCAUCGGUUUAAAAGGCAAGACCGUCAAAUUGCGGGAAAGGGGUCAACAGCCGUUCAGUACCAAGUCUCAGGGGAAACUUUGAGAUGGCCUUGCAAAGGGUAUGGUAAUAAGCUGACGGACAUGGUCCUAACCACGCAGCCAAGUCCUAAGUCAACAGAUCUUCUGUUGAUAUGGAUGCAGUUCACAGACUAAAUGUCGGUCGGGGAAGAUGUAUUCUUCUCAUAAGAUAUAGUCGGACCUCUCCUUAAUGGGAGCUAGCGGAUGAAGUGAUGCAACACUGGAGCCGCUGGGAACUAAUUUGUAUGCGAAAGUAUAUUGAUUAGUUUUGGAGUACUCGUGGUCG;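 note: selection with 25 µg/mL kanamycin versus none on LB agar overnight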
# APPLIED_CONDITIONS: 30 °C
Answer criterion not met if self-splicing fitness (ln) is under -3, and criterion met if it is -3 or more.

[
  {
    "SEQUENCE_RECORD": "AGAAAGCAAUAUUACGAUAU",
    "GROUP_LABEL": "criterion met"
  },
  {
    "SEQUENCE_RECORD": "CCUAAGCAAUAUUACGUUCG",
    "GROUP_LABEL": "criterion met"
  },
  {
    "SEQUENCE_RECORD": "UUACAGCAAUAUUACGUAAU",
    "GROUP_LABEL": "criterion not met"
  },
  {
    "SEQUENCE_RECORD": "CAGCAGCAAUAUUACGCAUG",
    "GROUP_LABEL": "criterion not met"
  },
  {
    "SEQUENCE_RECORD": "CAAUAGCAAUAUUACGUCUA",
    "GROUP_LABEL": "criterion met"
  },
  {
    "SEQUENCE_RECORD": "ACUCAGCAAUAUUACGUCUG",
    "GROUP_LABEL": "criterion not met"
  },
  {
    "SEQUENCE_RECORD": "UGCCAGCAAUAUUACGGACG",
    "GROUP_LABEL": "criterion met"
  },
  {
    "SEQUENCE_RECORD": "UAAGAGCAAUAUUACGUAUU",
    "GROUP_LABEL": "criterion not met"
  },
  {
    "SEQUENCE_RECORD": "ACCAAGCAAUAUUACGUCUU",
    "GROUP_LABEL": "criterion not met"
  },
  {
    "SEQUENCE_RECORD": "AGCCAGCAAUAUUACGGGGA",
    "GROUP_LABEL": "criterion met"
  },
  {
    "SEQUENCE_RECORD": "GUCAAGCAAUAUUACGUGAU",
    "GROUP_LABEL": "criterion not met"
  },
  {
    "SEQUENCE_RECORD": "AUAUAGCAAUAUUACGUUUA",
    "GROUP_LABEL": "criterion met"
  },
  {
    "SEQUENCE_RECORD": "UGGAAGCAAUAUUACGGCAU",
    "GROUP_LABEL": "criterion met"
  },
  {
    "SEQUENCE_RECORD": "UACCAGCAAUAUUACGACAU",
    "GROUP_LABEL": "criterion met"
  },
  {
    "SEQUENCE_RECORD": "UCCUAGCAAUAUUACGGGCU",
    "GROUP_LABEL": "criterion met"
  },
  {
    "SEQUENCE_RECORD": "AGCGAGCAAUAUUACGGUGU",
    "GROUP_LABEL": "criterion met"
  }
]
